ASSAY_DETAILS: Solubility measurement of Compound 1 di-HCl in various solvents
Type: physicochemical
TEST_SETTINGS: 25 °C, organic solvent or mixture, thermodynamic from solid; solvent Methanol; 25±1° C., agitated 36 h
Where a name gives a salt, the structure may show the parent alone.
MEASUREMENT_KIND: solubility at 36 h (mg/mL)
Supply the numeric figure in mg/mL, leaving out any unit text.

Per the record, N#CCC1(N2CCC(N[C@@H]3C[C@H]3c3ccccc3)CC2)CN(S(N)(=O)=O)C1 [Compound 1 di-HCl, dihydrochloride] has solubility at 36 h of 32.3

* * *

ASSAY_DETAILS: Solubility measurement of Compound 1 di-HCl in various solvents
Type: physicochemical
TEST_SETTINGS: 50 °C, organic solvent or mixture, thermodynamic from solid; solvent Chloroform; 50±1° C.; by vision; read-out: Solubility at 50° C.
Where a name gives a salt, the structure may show the parent alone.
MEASUREMENT_KIND: solubility

Per the record, N#CCC1(N2CCC(N[C@@H]3C[C@H]3c3ccccc3)CC2)CN(S(N)(=O)=O)C1 [Compound 1 di-HCl, dihydrochloride] has solubility of > 50 mg/mL

* * *

ASSAY_DETAILS: Solubility measurement of Compound 1 di-HCl in various solvents
Format: physicochemical
TEST_SETTINGS: 25 °C, organic solvent or mixture, thermodynamic from solid; solvent MeOH/water/ACN (6 v/1 v/3 v); 25±1° C.
Structures can show the parent of a compound that is named as a salt.
MEASUREMENT_KIND: solubility at 36 h

Per the record, N#CCC1(N2CCC(N[C@@H]3C[C@H]3c3ccccc3)CC2)CN(S(N)(=O)=O)C1 [Compound 1 di-HCl, dihydrochloride] has solubility at 36 h of > 50 mg/mL

* * *

ASSAY_DETAILS: Solubility measurement of Compound 1 di-HCl in various solvents
Format: physicochemical
TEST_SETTINGS: 50 °C, organic solvent or mixture, thermodynamic from solid; solvent MeCN; 50±1° C., agitated 24 h
Structures can show the parent of a compound that is named as a salt.
MEASUREMENT_KIND: solubility at 24 h

Per the record, N#CCC1(N2CCC(N[C@@H]3C[C@H]3c3ccccc3)CC2)CN(S(N)(=O)=O)C1 [Compound 1 di-HCl, dihydrochloride] has solubility at 24 h of 6290 µg/mL

* * *

ASSAY_DETAILS: Solubility measurement of Compound 1 di-HCl in various solvents
Format: physicochemical
TEST_SETTINGS: 25 °C, organic solvent or mixture, thermodynamic from solid; solvent 1,4-Dioxane; 25±1° C., agitated 36 h
Structures can show the parent of a compound that is named as a salt.
MEASUREMENT_KIND: solubility at 36 h (µg/mL)
Supply the numeric figure in µg/mL, leaving out any unit text.

Per the record, N#CCC1(N2CCC(N[C@@H]3C[C@H]3c3ccccc3)CC2)CN(S(N)(=O)=O)C1 [Compound 1 di-HCl, dihydrochloride] has solubility at 36 h of 200

* * *

ASSAY_DETAILS: Solubility measurement of Compound 1 di-HCl in various solvents
Type: physicochemical
TEST_SETTINGS: 50 °C, organic solvent or mixture, thermodynamic from solid; solvent ACN:Water (4:1); 50±1° C.; by vision; read-out: Solubility at 50° C.
Counter-ions that a name gives are not always drawn.
MEASUREMENT_KIND: solubility

Per the record, N#CCC1(N2CCC(N[C@@H]3C[C@H]3c3ccccc3)CC2)CN(S(N)(=O)=O)C1 [Compound 1 di-HCl, dihydrochloride] has solubility of > 50 mg/mL

* * *

ASSAY_DETAILS: Solubility measurement of Compound 1 di-HCl in various solvents
Type: physicochemical
TEST_SETTINGS: 50 °C, organic solvent or mixture, thermodynamic from solid; solvent ACN/water (9:1); 50±1° C.; by vision; read-out: Solubility at 50° C.
Counter-ions that a name gives are not always drawn.
MEASUREMENT_KIND: solubility

Per the record, N#CCC1(N2CCC(N[C@@H]3C[C@H]3c3ccccc3)CC2)CN(S(N)(=O)=O)C1 [Compound 1 di-HCl, dihydrochloride] has solubility of > 50 mg/mL

* * *

ASSAY_DETAILS: Solubility measurement of Compound 1 di-HCl in various solvents
Format: physicochemical
TEST_SETTINGS: 50 °C, organic solvent or mixture, thermodynamic from solid; solvent 1,4-Dioxane; 50±1° C., agitated 24 h
Structures can show the parent of a compound that is named as a salt.
MEASUREMENT_KIND: solubility at 24 h (µg/mL)
Supply the numeric figure in µg/mL, leaving out any unit text.

Per the record, N#CCC1(N2CCC(N[C@@H]3C[C@H]3c3ccccc3)CC2)CN(S(N)(=O)=O)C1 [Compound 1 di-HCl, dihydrochloride] has solubility at 24 h of 310

* * *

ASSAY_DETAILS: Solubility measurement of Compound 1 di-HCl in various solvents
Format: physicochemical
TEST_SETTINGS: 25 °C, organic solvent or mixture, thermodynamic from solid; solvent THF; 25±1° C., agitated 36 h
Structures can show the parent of a compound that is named as a salt.
MEASUREMENT_KIND: solubility at 36 h (µg/mL)
Supply the numeric figure in µg/mL, leaving out any unit text.

Per the record, N#CCC1(N2CCC(N[C@@H]3C[C@H]3c3ccccc3)CC2)CN(S(N)(=O)=O)C1 [Compound 1 di-HCl, dihydrochloride] has solubility at 36 h of 40

* * *

ASSAY_DETAILS: Solubility measurement of Compound 1 di-HCl in various solvents
Type: physicochemical
TEST_SETTINGS: 50 °C, organic solvent or mixture, thermodynamic from solid; solvent DMF; 50±1° C.; by vision; read-out: Solubility at 50° C.
Counter-ions that a name gives are not always drawn.
MEASUREMENT_KIND: solubility

Per the record, N#CCC1(N2CCC(N[C@@H]3C[C@H]3c3ccccc3)CC2)CN(S(N)(=O)=O)C1 [Compound 1 di-HCl, dihydrochloride] has solubility of > 50 mg/mL

* * *

ASSAY_DETAILS: Solubility measurement of Compound 1 di-HCl in various solvents
Assay type: physicochemical
TEST_SETTINGS: 25 °C, organic solvent or mixture, thermodynamic from solid; solvent MIBK; 25±1° C., agitated 36 h
Where a name gives a salt, the structure may show the parent alone.
MEASUREMENT_KIND: solubility at 36 h (µg/mL)
Supply the numeric figure in µg/mL, leaving out any unit text.

Per the record, N#CCC1(N2CCC(N[C@@H]3C[C@H]3c3ccccc3)CC2)CN(S(N)(=O)=O)C1 [Compound 1 di-HCl, dihydrochloride] has solubility at 36 h of 60

* * *

ASSAY_DETAILS: Solubility measurement of Compound 1 di-HCl in various solvents
Format: physicochemical
TEST_SETTINGS: MeOH/water/ACN (5 v/2 v/3 v), 25 °C, organic solvent or mixture, thermodynamic from solid; solvent Me0H/water/ACN (5 v/2 v/3 v); 25±1° C.; by vision; read-out: Solubility at 25° C.
Counter-ions that a name gives are not always drawn.
MEASUREMENT_KIND: solubility

Per the record, N#CCC1(N2CCC(N[C@@H]3C[C@H]3c3ccccc3)CC2)CN(S(N)(=O)=O)C1 [Compound 1 di-HCl, dihydrochloride] has solubility of > 50 mg/mL

* * *

ASSAY_DETAILS: Solubility measurement of Compound 1 di-HCl in various solvents
Assay type: physicochemical
TEST_SETTINGS: 25 °C, organic solvent or mixture, thermodynamic from solid; solvent 5% Water in MeOH; 25±1° C.; by vision; read-out: Solubility at 25° C.
Where a name gives a salt, the structure may show the parent alone.
MEASUREMENT_KIND: solubility

Per the record, N#CCC1(N2CCC(N[C@@H]3C[C@H]3c3ccccc3)CC2)CN(S(N)(=O)=O)C1 [Compound 1 di-HCl, dihydrochloride] has solubility of > 50 mg/mL

* * *

ASSAY_DETAILS: Solubility measurement of Compound 1 di-HCl in various solvents
Format: physicochemical
TEST_SETTINGS: 25 °C, organic solvent or mixture, thermodynamic from solid; solvent MeOH/ACN (10 v/3 v); 25±1° C.; by vision; read-out: Solubility at 25° C.
Counter-ions that a name gives are not always drawn.
MEASUREMENT_KIND: solubility

Per the record, N#CCC1(N2CCC(N[C@@H]3C[C@H]3c3ccccc3)CC2)CN(S(N)(=O)=O)C1 [Compound 1 di-HCl, dihydrochloride] has solubility of > 50 mg/mL

* * *

ASSAY_DETAILS: Solubility measurement of Compound 1 di-HCl in various solvents
Type: physicochemical
TEST_SETTINGS: 25 °C, organic solvent or mixture, thermodynamic from solid; solvent MeCN; 25±1° C., agitated 36 h
Structures can show the parent of a compound that is named as a salt.
MEASUREMENT_KIND: solubility at 36 h (µg/mL)
Supply the numeric figure in µg/mL, leaving out any unit text.

Per the record, N#CCC1(N2CCC(N[C@@H]3C[C@H]3c3ccccc3)CC2)CN(S(N)(=O)=O)C1 [Compound 1 di-HCl, dihydrochloride] has solubility at 36 h of 610
